molecular target: human AKT1 (Homo sapiens (Human))
Sequence (P31749 whole entry): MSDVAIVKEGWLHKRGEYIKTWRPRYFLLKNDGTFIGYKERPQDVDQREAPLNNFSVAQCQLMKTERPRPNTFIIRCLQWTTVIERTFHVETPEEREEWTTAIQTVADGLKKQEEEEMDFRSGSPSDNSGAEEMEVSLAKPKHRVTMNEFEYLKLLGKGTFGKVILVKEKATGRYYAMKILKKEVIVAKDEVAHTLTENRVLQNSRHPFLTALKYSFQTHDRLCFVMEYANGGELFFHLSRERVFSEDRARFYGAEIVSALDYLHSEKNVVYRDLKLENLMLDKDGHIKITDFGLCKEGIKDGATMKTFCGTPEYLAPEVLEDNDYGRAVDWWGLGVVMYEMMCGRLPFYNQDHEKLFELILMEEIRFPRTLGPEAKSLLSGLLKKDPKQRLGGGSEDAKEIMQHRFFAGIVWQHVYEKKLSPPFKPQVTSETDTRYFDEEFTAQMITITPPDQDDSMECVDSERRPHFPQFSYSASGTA
Structures can show the parent of a compound that is named as a salt.
Entries and their IC50 values follow.
Your answer is read as nM, so omit the unit and give the number.

[[record]]
molecule = "C[C@]1(O)C[C@@](N)(c2ccc(-c3nc4n(c3-c3ccccc3)COc3ccc(CO)cc3-4)cc2)C1"
test_result = 2.2

[[record]]
molecule = "CC1(O)CC(N)(c2ccc(-c3nc4n(c3-c3ccccc3)COc3ccc(C(=O)O)cc3-4)cc2)C1 (stereo not shown) [Example 63, hydrochloride]"
test_result = 5

[[record]]
molecule = "CC1(O)CC(N)(c2ccc(-c3nc4n(c3-c3ccccc3)COc3cc(C(=O)O)ccc3-4)cc2)C1 (stereo not shown) [Example 64, hydrochloride]"
test_result = 3.1

[[record]]
molecule = "COc1cc(OC)c2c(c1)OCn1c-2nc(-c2ccc(C3(N)CC(O)(C4CC4)C3)cc2)c1-c1ccccc1 (stereo not shown)"
test_result = 12

[[record]]
molecule = "CC[C@]1(O)C[C@@](N)(c2ccc(-c3nc4n(c3-c3ccccc3)COc3ccncc3-4)cc2)C1"
test_result = 12

[[record]]
molecule = "CC1(O)CC(N)(c2ccc(-c3nc4n(c3-c3ccccc3)COc3cc(CO)ccc3-4)cc2)C1 (stereo not shown)"
test_result = 8.6


Alright, here's another molecule for you.
Q: Notebook entry, human AKT1 (Homo sapiens (Human)) assay: IC50 of CC1(O)CC(N)(c2ccc(-c3nc4n(c3-c3ccccc3)COc3ccc(C(N)=O)cc3-4)cc2)C1 (stereo not shown) = ?
A: 1.6

###

system: AKT Ser473 phosphorylation; experiment: Phosphorylated AKT (Ser473) inhibitory activity in cultured cell A2780 (Meso Scale Discovery assay); format: cell-based; conditions: A2780 cells, 3 hours treatment; average±standard deviation of three independent runs
Entries and their pIC50 values follow.
The meaning of pIC50 here: minus log10 of the concentration in molar units.

Consider the worked cases shown below.
[[record]]
molecule = "COc1cccc2c1-c1nc(-c3ccc([C@]4(N)C[C@@](O)(C5CC5)C4)cc3)c(-c3ccccc3)n1CO2"
test_result = 7.51

[[record]]
molecule = "CNC(=O)c1ccc2c(c1)OCn1c-2nc(-c2ccc([C@]3(N)C[C@](C)(O)C3)cc2)c1-c1ccccc1"
test_result = 7.60

[[record]]
molecule = "C[C@]1(O)C[C@@](N)(c2ccc(-c3nc4n(c3-c3ccccc3)COc3cccnc3-4)cc2)C1"
test_result = 7.09

[[record]]
molecule = "C[C@]1(O)C[C@@](N)(c2ccc(-c3nc4n(c3-c3ccccc3)COc3ccc(C#N)cc3-4)cc2)C1"
test_result = 7.49

[[record]]
molecule = "CC1(O)CC(N)(c2ccc(-c3nc4n(c3-c3ccccc3)COc3ccncc3-4)cc2)C1 (stereo not drawn)"
test_result = 7.40

[[record]]
molecule = "N[C@]1(c2ccc(-c3nc4n(c3-c3ccccc3)COc3cccnc3-4)cc2)C[C@](O)(C2CC2)C1"
test_result = 7.18

[[record]]
molecule = "COc1ccc2c(c1)-c1nc(-c3ccc([C@]4(N)C[C@@](O)(C5CC5)C4)cc3)c(-c3ccccc3)n1CO2"
test_result = 7.48

[[record]]
molecule = "NC1(c2ccc(-c3nc4n(c3-c3ccccc3)COc3nccnc3-4)cc2)CC(O)(C2CC2)C1 (stereo not drawn)"
test_result = 7.15


Q: Entry under review: CCONC(=O)c1ccc2c(c1)OCn1c-2nc(-c2ccc([C@]3(N)C[C@](C)(O)C3)cc2)c1-c1ccccc1 . Reported pIC50?
A: 7.59

Q: Entry under review: C[C@]1(O)C[C@@](N)(c2ccc(-c3nc4n(c3-c3ccccc3)COc3ccc(-c5ccn[nH]5)cc3-4)cc2)C1 . Reported pIC50?
A: 7.32

Q: Entry under review: N[C@]1(c2ccc(-c3nc4n(c3-c3ccncc3)COc3cccc(F)c3-4)cc2)C[C@](O)(C2CC2)C1 . Reported pIC50?
A: 7.07

###

system: S6 ribosomal protein (S6RP) Ser240/Ser244 phosphorylation; experiment: Phosphorylated S6RP (Ser240/Ser244) inhibitory activity in cultured cell A2780 (Meso Scale Discovery assay); type: cell-based; conditions: A2780 cells, 3 hours treatment; average±standard deviation of three independent runs
pIC50: −log10 of the molar value.
Use Fulfilled when the recorded pIC50 is no lower than 7; use Not fulfilled when it is lower.

Previously resolved entries follow.
[[record]]
compound = "N[C@]1(c2ccc(-c3nc4n(c3-c3ccccc3)COc3cccc(F)c3-4)cc2)C[C@](O)(C2CC2)C1 [Example 1]"
assay_system = "S6 ribosomal protein (S6RP) Ser240/Ser244 phosphorylation"
class_assignment = "Fulfilled"

[[record]]
compound = "C[C@]1(O)C[C@@](N)(c2ccc(-c3nc4n(c3-c3ccccc3)COc3ccc(C#N)cc3-4)cc2)C1 [Example 46]"
assay_system = "S6 ribosomal protein (S6RP) Ser240/Ser244 phosphorylation"
class_assignment = "Fulfilled"

[[record]]
compound = "N[C@]1(c2ccc(-c3nc4n(c3-c3ccccc3)COc3ccncc3-4)cc2)C[C@](O)(C2CC2)C1 [Example 31]"
assay_system = "S6 ribosomal protein (S6RP) Ser240/Ser244 phosphorylation"
class_assignment = "Fulfilled"

[[record]]
compound = "N[C@]1(c2ccc(-c3nc4n(c3-c3ccncc3)COc3cccc(F)c3-4)cc2)C[C@](O)(C2CC2)C1 [Example 5]"
assay_system = "S6 ribosomal protein (S6RP) Ser240/Ser244 phosphorylation"
class_assignment = "Not fulfilled"


Q: Does pIC50 meet or surpass 7 for C[C@]1(O)C[C@@](N)(c2ccc(-c3nc4n(c3-c3ccccc3)COc3ccc(CO)cc3-4)cc2)C1 [Example 44] ?
A: Fulfilled

###

test system: AKT Ser473 phosphorylation; test: Phosphorylated AKT (Ser473) inhibitory activity in cultured cell A2780 (Meso Scale Discovery assay); format: cell-based; details: A2780 cells, 3 hours treatment; average±standard deviation of three independent runs
Measured parameter: IC50 (nM)
Your answer is read as nM, so omit the unit and give the number.

Consider the worked cases shown below.
[[record]]
compound = "C[C@]1(O)C[C@@](N)(c2ccc(-c3nc4n(c3-c3ccccc3)COc3cnccc3-4)cc2)C1 [Example 36]"
output_unit = "nM"
test_result = 32

[[record]]
compound = "N[C@]1(c2ccc(-c3nc4n(c3-c3ccccc3)COc3ccccc3-4)cc2)C[C@](O)(C2CC2)C1 [Example 11]"
output_unit = "nM"
test_result = 63

[[record]]
compound = "N[C@]1(c2ccc(-c3nc4n(c3-c3ccccc3)COc3cnccc3-4)cc2)C[C@](O)(C2CC2)C1 [Example 35]"
output_unit = "nM"
test_result = 24


Alright, here's another compound for you.
Q: Entry under review: N[C@]1(c2ccc(-c3nc4n(c3-c3ccccc3)COc3cccc(F)c3-4)cc2)C[C@](O)(C2CC2)C1 [Example 1] . Reported IC50?
A: 24
